The reported numbers originate from patent US8753841B2.

Test system: peptide-forming enzyme from Empedobacter brevis strain FERM BP-8113
experiment.description: Substrate specificity of enzyme (peptide production from carboxy and amine components)
Format: biochemical
measurement.setup: carboxy component 100 mM, 200 mM L-glutamine, pH 9.0, 25° C., 2 hours
readout.kind: L-Ala-L-Gln formed (mM)
Write the value in mM as a bare number.

Examples with their reported L-Ala-L-Gln formed follow.
molecule	readout.kind	unit.spec	result
C[C@H](N)C(=O)OC(C)(C)C.Cl [L-Alanine-t-butyl ester•HCl]	L-Ala-L-Gln formed	mM	7.5
CCOC(=O)[C@H](C)N.Cl [L-Alanine ethyl ester•HCl]	L-Ala-L-Gln formed	mM	91.5
COC(=O)[C@H](C)N.Cl [L-Alanine methyl ester•HCl, L-alanine methyl ester hydrochloride]	L-Ala-L-Gln formed	mM	84.3

Inquiry: Identify the measured L-Ala-L-Gln formed of CC(C)OC(=O)[C@H](C)N.Cl [L-Alanine isopropyl ester•HCl] for peptide-forming enzyme from Empedobacter brevis strain FERM BP-8113.
Reply text: 78.9
